Answer each item with its documented IC50.
target: PI3K β (Homo sapiens (Human))
Sequence (P42338 whole entry): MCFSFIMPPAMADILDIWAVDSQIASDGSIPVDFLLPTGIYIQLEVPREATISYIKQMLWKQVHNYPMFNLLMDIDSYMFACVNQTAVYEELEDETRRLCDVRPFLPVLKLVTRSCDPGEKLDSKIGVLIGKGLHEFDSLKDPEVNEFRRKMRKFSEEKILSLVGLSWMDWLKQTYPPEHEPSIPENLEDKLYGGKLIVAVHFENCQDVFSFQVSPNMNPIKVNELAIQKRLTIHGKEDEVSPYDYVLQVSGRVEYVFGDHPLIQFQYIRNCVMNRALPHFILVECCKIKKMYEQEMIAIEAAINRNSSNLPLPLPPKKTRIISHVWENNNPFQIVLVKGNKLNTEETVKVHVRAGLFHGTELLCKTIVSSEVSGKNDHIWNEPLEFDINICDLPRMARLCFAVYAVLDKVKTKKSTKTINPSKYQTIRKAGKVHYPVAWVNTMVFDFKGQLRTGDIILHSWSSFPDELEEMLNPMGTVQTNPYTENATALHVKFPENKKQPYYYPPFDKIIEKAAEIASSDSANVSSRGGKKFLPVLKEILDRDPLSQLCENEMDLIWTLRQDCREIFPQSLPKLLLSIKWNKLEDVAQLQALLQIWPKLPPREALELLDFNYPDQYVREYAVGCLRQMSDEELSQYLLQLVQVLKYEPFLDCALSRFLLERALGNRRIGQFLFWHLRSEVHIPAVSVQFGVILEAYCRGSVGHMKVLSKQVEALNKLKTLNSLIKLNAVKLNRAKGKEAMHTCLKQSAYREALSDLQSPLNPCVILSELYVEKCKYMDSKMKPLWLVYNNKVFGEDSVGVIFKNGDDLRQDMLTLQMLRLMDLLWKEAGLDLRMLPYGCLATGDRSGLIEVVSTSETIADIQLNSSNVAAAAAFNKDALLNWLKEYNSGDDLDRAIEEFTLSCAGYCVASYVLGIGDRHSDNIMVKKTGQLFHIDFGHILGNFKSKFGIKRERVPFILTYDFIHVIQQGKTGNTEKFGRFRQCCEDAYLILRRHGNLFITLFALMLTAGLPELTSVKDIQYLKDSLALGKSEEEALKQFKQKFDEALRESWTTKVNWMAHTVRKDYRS
Sequence (P27986 whole entry partner): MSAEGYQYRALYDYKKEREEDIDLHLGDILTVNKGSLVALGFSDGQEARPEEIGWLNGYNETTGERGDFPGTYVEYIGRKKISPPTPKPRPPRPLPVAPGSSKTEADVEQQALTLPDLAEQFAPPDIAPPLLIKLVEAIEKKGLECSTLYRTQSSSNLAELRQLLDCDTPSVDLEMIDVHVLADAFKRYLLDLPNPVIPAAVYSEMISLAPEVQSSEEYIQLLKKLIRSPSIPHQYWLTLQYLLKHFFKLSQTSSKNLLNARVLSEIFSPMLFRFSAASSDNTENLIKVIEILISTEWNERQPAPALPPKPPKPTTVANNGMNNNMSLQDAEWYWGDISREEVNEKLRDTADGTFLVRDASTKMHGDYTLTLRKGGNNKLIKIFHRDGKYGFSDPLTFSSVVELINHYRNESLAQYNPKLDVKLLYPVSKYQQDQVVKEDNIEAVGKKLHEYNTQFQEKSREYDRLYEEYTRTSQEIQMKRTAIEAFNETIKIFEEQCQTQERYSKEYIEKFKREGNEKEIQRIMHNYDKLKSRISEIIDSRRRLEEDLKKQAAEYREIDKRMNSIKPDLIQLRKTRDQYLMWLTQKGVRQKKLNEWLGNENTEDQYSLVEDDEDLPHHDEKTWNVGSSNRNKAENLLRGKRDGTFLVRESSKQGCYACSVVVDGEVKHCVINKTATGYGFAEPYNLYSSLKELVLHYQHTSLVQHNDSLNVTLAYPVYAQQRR

Ask: Please report IC50 for the following compound: Cc1nc(C)c(C#Cc2cccc3cc([C@H](C)NC(=O)c4c(N)nn5cccnc45)n(-c4ccccc4)c(=O)c23)s1 [Compound 79]
Reply: 5 to 10 µM

Ask: Please report IC50 for the following compound: C[C@H](NC(=O)c1c(N)nn2cccnc12)c1cc2cccc(C#CCN3CCOCC3)c2c(=O)n1-c1ccccc1 [Compound 10]
Reply: 5 to 10 µM

Ask: Please report IC50 for the following compound: C[C@H](NC(=O)c1c(N)nn2cccnc12)c1nc2cccc(C#Cc3cnn(C)c3)c2c(=O)n1C [Compound 55]
Reply: 1 to 5 µM

Ask: Please report IC50 for the following compound: Cc1nc(C#Cc2cccc3cc([C@H](C)NC(=O)c4c(N)nn5cccnc45)n(-c4ccccc4)c(=O)c23)cs1 [Compound 40]
Reply: 5 to 10 µM

Ask: Please report IC50 for the following compound: C[C@H](NC(=O)c1c(N)nn2cccnc12)c1cc2cccc(C#CC=O)c2c(=O)n1-c1ccccc1 [Compound 36]
Reply: 0.001 to 0.5 µM

Ask: Please report IC50 for the following compound: C[C@H](NC(=O)c1c(N)nn2cccnc12)c1cc2cccc(C#CC(C)(C)N)c2c(=O)n1-c1ccccc1 [Compound 8]
Reply: 5 to 10 µM

Ask: Please report IC50 for the following compound: Cc1nc(C#Cc2cccc3nc([C@H](C)NC(=O)c4c(N)nn5cccnc45)n(-c4ccccc4)c(=O)c23)cs1 [Compound 63]
Reply: 5 to 10 µM

Ask: Please report IC50 for the following compound: C[C@H](NC(=O)c1c(N)nn2cccnc12)c1cc2cccc(C#CC3CNC3)c2c(=O)n1-c1ccccc1 [Compound 74]
Reply: 5 to 10 µM

Ask: Please report IC50 for the following compound: Cc1cc(C)n2nc(N)c(C(=O)N[C@@H](C)c3cc4cccc(C#Cc5cnn(C)c5)c4c(=O)n3-c3ccccc3)c2n1 [Compound 108]
Reply: 5 to 10 µM

Ask: Please report IC50 for the following compound: COc1cc(C#Cc2cccc3cc([C@H](C)NC(=O)c4c(N)nn5cccnc45)n(-c4ccccc4)c(=O)c23)ccn1 [Compound 28]
Reply: 5 to 10 µM

Ask: Please report IC50 for the following compound: CC#Cc1cccc2cc(C(C)NC(=O)c3c(N)nn4cccnc34)c(-c3ccccc3)nc12 (stereo not shown) [Compound 51]
Reply: 1 to 5 µM

Ask: Please report IC50 for the following compound: Cc1nn(C)cc1C#Cc1cccc2cc([C@H](C)NC(=O)c3c(N)nn4cccnc34)n(-c3ccccc3)c(=O)c12 [Compound 19]
Reply: 5 to 10 µM

Ask: Please report IC50 for the following compound: Cc1cnc(C(=O)N[C@@H](C)c2cc3cccc(C#Cc4cnn(C)c4)c3c(=O)n2-c2ccccc2)c(N)n1 [Compound 68]
Reply: 5 to 10 µM

Ask: Please report IC50 for the following compound: C[C@H](NC(=O)c1c(N)nn2cccnc12)c1cc2cccc(C#Cc3ccn(C)n3)c2c(=O)n1-c1ccccc1 [Compound 30]
Reply: 5 to 10 µM

Ask: Please report IC50 for the following compound: Cc1c(C#Cc2cccc3cc([C@H](C)NC(=O)c4c(N)nn5cccnc45)n(-c4ccccc4)c(=O)c23)cnn1C [Compound 35]
Reply: 5 to 10 µM

Ask: Please report IC50 for the following compound: C[C@H](NC(=O)c1c(N)nn2cccnc12)c1cc2cccc(C#Cc3cnn(C)c3)c2c(=O)n1-c1ccc(F)cc1 [Compound 96]
Reply: 5 to 10 µM

Ask: Please report IC50 for the following compound: Cc1ccncc1C#Cc1cccc2cc([C@H](C)NC(=O)c3c(N)nn4cccnc34)n(-c3ccccc3)c(=O)c12 [Compound 61]
Reply: 5 to 10 µM

Ask: Please report IC50 for the following compound: C[C@H](NC(=O)c1c(N)nn2cccnc12)c1cc2cccc(C#Cc3cnc[nH]3)c2c(=O)n1-c1ccccc1 [Compound 43]
Reply: 5 to 10 µM

Ask: Please report IC50 for the following compound: C[C@H](NC(=O)c1c(N)nn2cccnc12)c1cc2cccc(C#CC3(O)CN4CCC3CC4)c2c(=O)n1-c1ccccc1 (stereo partly shown) [Compound 62]
Reply: 5 to 10 µM

Ask: Please report IC50 for the following compound: C[C@H](NC(=O)c1c(N)nn2cccnc12)c1cc2cccc(C#Cc3cc[nH]c(=O)c3)c2c(=O)n1-c1ccccc1 [Compound 31]
Reply: 5 to 10 µM

Ask: Please report IC50 for the following compound: C[C@H](NC(=O)c1c(N)nn2cccnc12)c1cc2cccc(C#Cc3cocn3)c2c(=O)n1-c1ccccc1 [Compound 66]
Reply: 1 to 5 µM

Ask: Please report IC50 for the following compound: C[C@H](NC(=O)c1c(N)nn2cccnc12)c1cc2cccc(C#Cc3cnn(C)c3)c2c(=O)n1C [Compound 94]
Reply: 0.5 to 1 µM

Ask: Please report IC50 for the following compound: C#Cc1cccc2nc([C@H](C)NC(=O)c3c(N)nn4cccnc34)n(-c3ccc(F)cc3)c(=O)c12 [Compound 50]
Reply: 5 to 10 µM

Ask: Please report IC50 for the following compound: C[C@H](O)C#Cc1cccc2cc([C@H](C)NC(=O)c3c(N)nn4cccnc34)n(-c3ccccc3)c(=O)c12 [Compound 16]
Reply: 1 to 5 µM

Ask: Please report IC50 for the following compound: COc1ccc(C#Cc2cccc3cc([C@H](C)NC(=O)c4c(N)nn5cccnc45)n(-c4ccccc4)c(=O)c23)cn1 [Compound 6]
Reply: 5 to 10 µM

Ask: Please report IC50 for the following compound: C[C@H](NC(=O)c1c(N)nn2cccnc12)c1cc2cccc(C#Cc3cnn(C)c3)c2c(=O)n1-c1cccc(F)c1 [Compound 93]
Reply: 5 to 10 µM

Ask: Please report IC50 for the following compound: Cn1cc(C#Cc2cccc3cc(CNC(=O)c4c(N)nn5cccnc45)n(-c4ccccc4)c(=O)c23)cn1 [Compound 107]
Reply: 5 to 10 µM

Ask: Please report IC50 for the following compound: COC(C)C#Cc1cccc2cc([C@H](C)NC(=O)c3c(N)nn4cccnc34)n(-c3ccccc3)c(=O)c12 (stereo partly shown) [Compound 22]
Reply: 5 to 10 µM
